Assay: TRM-201-PK-102 single-dose four-period crossover pharmacokinetic study, fasted healthy subjects
Assay type: in vivo, human
Details: human, plasma, oral, 12.5 mg, 102 study, Black or African-American subjects, read-out: arithmetic mean Cmax
Method: A Single-Dose, Open-Label, Phase 1, Four-Period Crossover Pharmacokinetic Study of TRM-201 (Rofecoxib) 12.5 mg, 17.5 mg, 20 mg and 25 mg Administered to Healthy Subjects in a Fasting State, with Comparison to Historical Pharmacokinetic Parameters of Previously Marketed Rofecoxib (“TRM-201-PK-102” or “102 PK Study”) […] In each of the four dosing periods, subjects fasted overnight for at least 10 hours before study drug dosing. […] Pharmacokinetic and safety endpoints were evaluated. […]
READOUT_LABEL: Cmax (ng/mL)
Give bare numbers, in ng/mL.

Lookup: Provide one value: measured Cmax of CS(=O)(=O)c1ccc(C2=C(c3ccccc3)C(=O)OC2)cc1 [TRM-201]
Found: 143

---

Assay: TRM-201-PK-102 single-dose four-period crossover pharmacokinetic study, fasted healthy subjects
Format: in vivo, human
Details: human, plasma, oral, 17.5 mg, 102 study, 53-60 years, read-out: geometric mean Cmax
Experimental: A Single-Dose, Open-Label, Phase 1, Four-Period Crossover Pharmacokinetic Study of TRM-201 (Rofecoxib) 12.5 mg, 17.5 mg, 20 mg and 25 mg Administered to Healthy Subjects in a Fasting State, with Comparison to Historical Pharmacokinetic Parameters of Previously Marketed Rofecoxib (“TRM-201-PK-102” or “102 PK Study”) […] In each of the four dosing periods, subjects fasted overnight for at least 10 hours before study drug dosing. […] Pharmacokinetic and safety endpoints were evaluated. […]
READOUT_LABEL: Cmax
Field note: include the unit after the figure.

Lookup: Hello, please tell me recorded Cmax for this one: CS(=O)(=O)c1ccc(C2=C(c3ccccc3)C(=O)OC2)cc1 [TRM-201]
Found: 230 ng/mL

---

experiment: TRM-201-PK-102 single-dose four-period crossover pharmacokinetic study, fasted healthy subjects; type: in vivo, human; details: human, plasma, oral, 25 mg, 102 study, 41-52 years, read-out: arithmetic mean AUC0-∞
READOUT_LABEL: AUC(0-inf)

Lookup: Given the compound CS(=O)(=O)c1ccc(C2=C(c3ccccc3)C(=O)OC2)cc1 [TRM-201] , write its reported AUC(0-inf).
Found: 4.81 µg·h/mL

---

test: 101 and 102 PK studies combined (fasted); assay type: in vivo; details: human, plasma, oral, 25 mg, 101 and 102 studies combined (FIG. 47), read-out: arithmetic mean Cmax
READOUT_LABEL: Cmax (ng/mL)
One number for each entry, in ng/mL.

Lookup: For CS(=O)(=O)c1ccc(C2=C(c3ccccc3)C(=O)OC2)cc1 , write its Cmax.
Found: 336

---

Assay: TRM-201-PK-102 single-dose four-period crossover pharmacokinetic study, fasted healthy subjects
Format: in vivo, human
Conditions: human, plasma, oral, 25 mg, 102 study, body weight 47-70 kg, read-out: geometric mean AUC0-∞
Procedure: A Single-Dose, Open-Label, Phase 1, Four-Period Crossover Pharmacokinetic Study of TRM-201 (Rofecoxib) 12.5 mg, 17.5 mg, 20 mg and 25 mg Administered to Healthy Subjects in a Fasting State, with Comparison to Historical Pharmacokinetic Parameters of Previously Marketed Rofecoxib (“TRM-201-PK-102” or “102 PK Study”) […] In each of the four dosing periods, subjects fasted overnight for at least 10 hours before study drug dosing. […] Pharmacokinetic and safety endpoints were evaluated. […]
READOUT_LABEL: AUC(0-inf)
Phrase the answer as number then unit, nothing more needed.

Lookup: # return recorded AUC(0-inf) for entry CS(=O)(=O)c1ccc(C2=C(c3ccccc3)C(=O)OC2)cc1
Found: 4310 ng·h/mL
